target_or_test_system: Tubulin (Homo sapiens) (UniProt P68371+Q9H4B7+P0DPH7+P68366+Q13509+Q71U36+P04350+Q3ZCM7+P07437+P68363+Q9BQE3+Q6PEY2+Q13885+Q9BVA1+Q9BUF5)
experimental_details: Displacement of [3H]-colchicine from biotin-labeled tubulin (unknown origin) at 1 uM after 2 hrs by scintillation proximity assay relative to control
Type: protein-complex assay
measured_metric: inhibition

Please review the entries below; each comes with its answer.
smiles_str | measured_result
COc1ccc(S(=O)(=O)n2ccc3ccnc(-c4ccc(C(F)(F)F)cc4)c32)cc1 | 35%
COc1ccc(S(=O)(=O)n2ccc3ccnc(-c4cccs4)c32)cc1 | 30%

Could you now look at the following compound, please?
Entry under review: COc1ccc(S(=O)(=O)n2ccc3ccnc(-c4ccc(Cl)cc4)c32)cc1 . Reported inhibition?
41%

###

target_or_test_system: Tubulin
experimental_details: Displacement of [3H]-colchicine from biotin-labeled tubulin (unknown origin) after 2 hrs by scintillation proximity assay
The compounds listed here are annotated with their Ki.

smiles_str | Ki
COc1ccc(S(=O)(=O)n2ccc3ccnc(-c4ccco4)c32)cc1 | 380 nM

Attention now turns to another entry.
I'm curious: which Ki was measured for COc1ccc(S(=O)(=O)Nc2cccnc2Nc2ccc(O)cc2)cc1 tested on Tubulin?
1510 nM

###

System: HT-29
experimental_details: Cytotoxicity against human HT-29 cells assessed as growth inhibition after 72 hrs by methylene blue staining-based assay
Assay type: functional, cell-based
condition_parameters: HT-29, 72 h
measured_metric: IC50
Be sure to follow the number with its unit.

smiles_str | measured_metric | measured_result
COc1cc2c(c(OC)c1OC)-c1ccc(OC)c(=O)cc1[C@@H](NC(C)=O)CC2 | IC50 | 15.2 nM

Now for a further compound.
// query IC50 value for entry COc1ccc(S(=O)(=O)Nc2cccnc2Nc2ccc(O)cc2)cc1
339 nM

###

target_or_test_system: Tubulin (Homo sapiens) (UniProt P68371+Q9H4B7+P0DPH7+P68366+Q13509+Q71U36+P04350+Q3ZCM7+P07437+P68363+Q9BQE3+Q6PEY2+Q13885+Q9BVA1+Q9BUF5)
experimental_details: Displacement of [3H]-colchicine from biotin-labeled tubulin (unknown origin) at 5 uM after 2 hrs by scintillation proximity assay relative to control
Type: protein-complex assay
Please note: 1 applies when inhibition is 70% or greater, and -1 applies otherwise.

smiles_str | class_name
COc1ccc(S(=O)(=O)n2ccc3ccnc(-c4ccccc4)c32)cc1 | -1
COc1ccc(S(=O)(=O)n2ccc3ccnc(-c4ccc([N+](=O)[O-])cc4)c32)cc1 | -1
COc1ccc(S(=O)(=O)n2ccc3ccnc(-c4ccncc4)c32)cc1 | -1

Quick check, inhibition >= 70%? COc1ccc(S(=O)(=O)n2ccc3ccnc(-c4ccc(N(C)C)cc4)c32)cc1
1

In plain terms: is recorded inhibition at least 70% for COc1ccc(S(=O)(=O)n2ccc3ccnc(-c4ccco4)c32)cc1 ?
1

Please tell me: is the compound COc1ccc(S(=O)(=O)n2ccc3ccnc(-c4ccc(C(F)(F)F)cc4)c32)cc1 at or over 70% in terms of inhibition?
-1

###

target_or_test_system: Tubulin (Homo sapiens) (UniProt P68371+Q9H4B7+P0DPH7+P68366+Q13509+Q71U36+P04350+Q3ZCM7+P07437+P68363+Q9BQE3+Q6PEY2+Q13885+Q9BVA1+Q9BUF5)
experimental_details: Displacement of [3H]-colchicine from biotin-labeled tubulin (unknown origin) at 1 uM after 2 hrs by scintillation proximity assay relative to control
Type: protein-complex assay
measured_metric: inhibition (%)
Kindly answer with a numeric value in %, unit omitted.

smiles_str | reading_unit | inhibition
COc1ccc(S(=O)(=O)n2ccc3ccnc(-c4ccc([N+](=O)[O-])cc4)c32)cc1 | % | 21

Please give the measured inhibition for this compound: COc1ccc(S(=O)(=O)n2ccc3ccnc(-c4ccc(N(C)C)cc4)c32)cc1
41

Sample COc1ccc(S(=O)(=O)n2ccc3ccnc(-c4ccncc4)c32)cc1 — what was its inhibition?
35

Item under review: COc1ccc(S(=O)(=O)n2ccc3ccnc(-c4ccco4)c32)cc1 . Reported inhibition?
63

Please give the measured inhibition for this compound: COc1ccc(S(=O)(=O)n2ccc3ccnc(-c4ccccc4)c32)cc1
42
